# STUDY TARGET: ferroportin (Fpn) (Homo sapiens, UniProt Q9NP59)
# Sequence (Q9NP59 whole entry): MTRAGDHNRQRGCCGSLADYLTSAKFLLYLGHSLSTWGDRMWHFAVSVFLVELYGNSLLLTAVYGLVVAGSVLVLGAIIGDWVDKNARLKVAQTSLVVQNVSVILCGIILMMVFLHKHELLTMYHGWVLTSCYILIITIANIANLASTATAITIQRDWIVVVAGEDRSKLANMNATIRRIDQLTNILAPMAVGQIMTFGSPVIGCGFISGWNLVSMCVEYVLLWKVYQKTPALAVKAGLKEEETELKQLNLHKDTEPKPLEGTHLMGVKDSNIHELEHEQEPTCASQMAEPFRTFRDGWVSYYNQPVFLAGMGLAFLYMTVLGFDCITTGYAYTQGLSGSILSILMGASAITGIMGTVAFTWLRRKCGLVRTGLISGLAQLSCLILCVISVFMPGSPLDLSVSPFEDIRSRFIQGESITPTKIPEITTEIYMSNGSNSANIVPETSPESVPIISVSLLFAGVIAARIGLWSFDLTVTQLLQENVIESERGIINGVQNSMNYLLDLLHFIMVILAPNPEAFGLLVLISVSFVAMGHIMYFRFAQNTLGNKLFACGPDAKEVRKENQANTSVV
# RUN DESCRIPTION: Inhibition of ferroportin mediated iron export activity in an iron response assay (BLA reporter, HEK-293 cell line #354)
# ASSAY CONTEXT: average of multiple measurements; iron response assay; 3HCl-salts; read-out: BLAzer EC50
Readings of pEC50 for the listed compounds
Scale for pEC50: -log10 of concentration given in mol/L; no unit attached.

## Input // pEC50 lookup, key: "O=C(NCc1ncccc1Br)c1coc(CCNCCc2nc3ccccc3[nH]2)n1"
## Output 6.77

New cases:
## Input Consider the compound shown here: "O=C(NCc1ncccc1F)c1coc(CCNCCc2nc3ccccc3[nH]2)n1" What is its recorded pEC50?
## Output 6.81
